- assay-info: chemical genetic growth profiling, strain panel (AID 1159580);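 further: tested at 20 µM; growth read once vehicle control cultures reached saturation at 30 °C; 1 = growth at the plate median or of vehicle wells; lower values mean less growth of the strain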
- measurement-conditions: S. cerevisiae deletion strains, growth OD, locus YDR162C, strain NBP2, stronger effect = lower value
Among all 5,500 compounds or so, about 2,000 (36%) were called active. Roughly 18% stayed inconclusive and do not appear here. The list shows a part of the results.
readout: normalized growth

>>> experimental_value("O=c1oc2c(O)c(O)cc3c(=O)oc4c(O)c(O)cc1c4c23")
0.661
>>> experimental_value("COC(=O)C[C@H]1C(C)(C)[C@@H](O)[C@@H]2CC3=C4C=C(OC)O[C@@H](c5ccoc5)[C@]4(C)CCC3[C@@]1(C)C2=O (stereo partly specified)")
0.987
>>> experimental_value("CCCCCCCCCCCCCCCCCCOCC(O)CO (stereo unspecified)")
0.991
>>> experimental_value("CC1=CC2C(C(C)C)CCC(C)(O)C2CC1 (stereo unspecified)")
0.956
>>> experimental_value("CN1C(=O)CCS(=O)(=O)C1c1ccc(Cl)cc1 (stereo unspecified)")
1.02
>>> experimental_value("CC1(C)C(=O)[C@@H]2C[C@@]3(O)C4=CC(=O)O[C@@H](c5ccoc5)[C@]4(C)CCC3[C@@](C)(C2=O)[C@H]1CC(=O)O (stereo partly specified)")
1.03

###

normalized growth values for the compounds below.
- assay-info: chemical genetic growth profiling, strain panel (AID 1159580);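 further: tested at 20 µM; growth read once vehicle control cultures reached saturation at 30 °C; 1 = growth at the plate median or of vehicle wells; lower values mean less growth of the strain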
- measurement-conditions: S. cerevisiae deletion strains, growth OD, locus YOR144C, strain elg1, stronger effect = lower value
Hit rate of the full screen: of about 5,500 compounds, about 2,000 (36%) were called active. Not shown: some 18% with an inconclusive outcome. This is one part of the list. *1 amine or outer side, *2 acyl side, *3 side chain or, on linkers, in order; H or OH if unused. Where a SMILES comes first, the peptide text is derived from it. Bridges are numbered along the chain shown (N, C = ends). [ ]: non-standard residue; d: D form. The star is where a group is joined. ξ: configuration not given here. ΔAla(E,3-NHCONH2) = NC(=O)N/C=C(/N)C(=O)O; X2 = NC1=NCCC(C(N[*:1])C(=O)[*:2])N1; ξβ3hOrn = NCCCC(N)CC(=O)*; Dap = NC[CH](N)C(=O)O
readout: normalized growth

>>> experimental_value("NCCc1c[nH]c2ccccc12")
0.999
>>> experimental_value("CN(C)CCc1c[nH]c2ccc(CS(=O)(=O)N3CCCC3)cc12")
0.981
>>> experimental_value("C=C(C)[C@@H]1CC[C@]2(CO)CC[C@]3(C)[C@H](CCC4[C@@]5(C)CC[C@H](O)C(C)(C)C5CC[C@]43C)C12 (some centres not stated)")
0.997
>>> experimental_value("CC1(C)C(=O)[C@@H]2C[C@@]3(O)C4=CC(=O)O[C@@H](c5ccoc5)[C@]4(C)CCC3[C@@](C)(C2=O)[C@H]1CC(=O)O (some centres not stated)")
0.989
>>> experimental_value("COc1ccc2c(c1)[C@]13CCCC[C@H]1[C@H](C2)N(C)CC3")
0.99
>>> experimental_value("O=c1[nH]cnc2c1ncn2C1O[C@H](CO)[C@@H](O)[C@H]1O (some centres not stated)")
1.03
>>> experimental_value("CC(=O)N[C@@H](Cc1c[nH]c2ccccc12)C(=O)O")
1.02
>>> experimental_value("O=C(O)[C@H](O)[C@@](O)(Cc1ccc(O)cc1)C(=O)O")
1
>>> experimental_value("CCC1(CC)C(=O)C=CNC1=O")
1
>>> experimental_value("O=C(O)c1cc([N+](=O)[O-])ccc1NCCCc1ccccc1")
0.939
>>> experimental_value("O=C(CCc1ccc(O)cc1)c1c(O)cc(O)cc1O[C@@H]1O[C@H](CO)[C@@H](O)[C@H](O)[C@H]1O")
1
>>> experimental_value("COc1cc(O)cc(OC)c1OC")
1
>>> experimental_value("CC[C@H]1CN2CCc3cc(OC)c(OC)cc3C2C[C@@H]1CC1NCCc2cc(OC)c(OC)cc21 (some centres not stated)")
1
>>> experimental_value("COC1(C)CCC2OC2(C)CCC2C1CC2(C)C (configuration not stated)")
0.994
>>> experimental_value("COc1cc2c(cc1OC)[C@@]13CCN4CC5=CCOC6CC(=O)N2C1[C@H]6[C@H]5C[C@H]43 (some centres not stated)")
0.997
>>> experimental_value("NCCCC(N)CC(=O)NCC1NC(=O)C(CO)NC(=O)C(N)CNC(=O)C(C2CCN=C(N)N2)NC(=O)/C(=C\\NC(N)=O)NC1=O (stereo not drawn) (H-[Dap]S[Dap](ξβ3hOrn)[ΔAla(E,3-NHCONH2)][X2]; lactam 1-C; configuration not given here)")
1.02
>>> experimental_value("CO[C@H]1C[C@H](O[C@H]2[C@H](C)[C@@H](OC3O[C@H](C)C[C@H](N(C)C)[C@H]3OC(C)=O)[C@@H](C)C[C@]3(CO3)C(=O)[C@H](C)[C@@H](OC(C)=O)[C@@H](C)[C@@H](C)OC(=O)[C@@H]2C)O[C@@H](C)[C@@H]1OC(C)=O (some centres not stated)")
0.985

###

- assay-info: chemical genetic growth profiling, strain panel (AID 1159580);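 further: tested at 20 µM; growth read once vehicle control cultures reached saturation at 30 °C; 1 = growth at the plate median or of vehicle wells; lower values mean less growth of the strain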
- measurement-conditions: S. cerevisiae deletion strains, growth OD, locus YNL067W, strain RPL9B
Out of some 5,500 compounds screened, about 2,000 (36%) were called active. About 18% were inconclusive and are not listed. Cut-off read from the data, not from the text of the source: active = normalized growth mostly below about 0.91 (no sharp cut-off); inconclusive = no clear call, values can overlap the other calls; inactive = mostly above about 0.92. The list shows a part of the results.
Outcomes: active, inactive

>>> label_value("CC1=C(O)C(=O)C=C2C1=CC=C1[C@@]2(C)CC[C@@]2(C)[C@@H]3C[C@](C)(C(=O)O)CC[C@]3(C)CC[C@]12C")
"active"
>>> label_value("CC(=O)OCC1=C(C(=O)O)N2C(=O)[C@@H](NC(=O)CCCC(N)C(=O)O)C2SC1 (some centres undefined)")
"inactive"
>>> label_value("COC(=O)[C@]1(C)CC[C@]2(C)CC[C@]3(C)C4=CC=C5C(=CC(=O)C(O)=C5C)[C@]4(C)CC[C@@]3(C)[C@@H]2C1")
"active"
>>> label_value("Cc1c(NC(=O)c2cccnc2)c(=O)n(-c2ccccc2)n1C")
"inactive"

###

- assay-info: chemical genetic growth profiling, strain panel (AID 1159580);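 further: tested at 20 µM; growth read once vehicle control cultures reached saturation at 30 °C; 1 = growth at the plate median or of vehicle wells; lower values mean less growth of the strain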
- measurement-conditions: S. cerevisiae deletion strains, growth OD, locus YNL071W, strain lat1, stronger effect = lower value
Among all 5,500 compounds or so, about 2,000 (36%) were called active. Roughly 18% stayed inconclusive and do not appear here. The list shows a part of the results. *1 amine or outer side, *2 acyl side, *3 side chain or, on linkers, in order; H or OH if unused. Where a SMILES comes first, the peptide text is derived from it. Bridges are numbered along the chain shown (N, C = ends). [ ]: non-standard residue; d: D form. The star is where a group is joined. ξ: configuration not given here. ΔAla(E,3-NHCONH2) = NC(=O)N/C=C(/N)C(=O)O; X2 = NC1=NCCC(C(N[*:1])C(=O)[*:2])N1; ξβ3hOrn = NCCCC(N)CC(=O)*; Dap = NC[CH](N)C(=O)O
readout: normalized growth

>>> experimental_value("COc1cc(/C=C/C(=O)N2CCC=CC2=O)cc(OC)c1OC")
0.975
>>> experimental_value("COc1cc(O)cc(OC)c1OC")
0.994
>>> experimental_value("CN1C(=O)CCS(=O)(=O)C1c1ccc(Cl)cc1 (stereo unspecified)")
0.979
>>> experimental_value("CC1=CC2C(C(C)C)CCC(C)(O)C2CC1 (stereo unspecified)")
0.876
>>> experimental_value("COc1cc(-c2oc3cc(O)ccc3c(=O)c2O)ccc1O")
0.96
>>> experimental_value("CCOc1ccc(C(=O)c2cc(O)c(OC)c(OC)c2O)cc1")
0.626
>>> experimental_value("O=C(CCBr)N1CCN(C(=O)CCBr)CC1")
1.02
>>> experimental_value("CCNc1nc(Cl)nc(NCC)n1")
0.998
>>> experimental_value("COc1ccc(C2C(=O)c3ccccc3C2=O)cc1")
0.986
>>> experimental_value("COC1(C)CCC2OC2(C)CCC2C1CC2(C)C (stereo unspecified)")
1.01
>>> experimental_value("CN1CCN(CCC=C2c3ccccc3Sc3ccc(S(=O)(=O)N(C)C)cc32)CC1")
0.978
>>> experimental_value("O=c1c(O)c(-c2ccc(O)c(O)c2)oc2cc(O)ccc12")
0.945
>>> experimental_value("CC[C@H]1OC(=O)[C@H](C)[C@@H](O[C@H]2C[C@@](C)(OC)[C@@H](O)[C@H](C)O2)[C@H](C)[C@@H](O[C@@H]2O[C@H](C)C[C@H](N(C)C)[C@H]2O)[C@](C)(O)C[C@@H](C)[C@@H]2N[C@@H](COCCOC)O[C@H]([C@H]2C)[C@]1(C)O")
0.999
>>> experimental_value("O=C(CCc1ccc(O)cc1)c1c(O)cc(O)cc1O[C@@H]1O[C@H](CO)[C@@H](O)[C@H](O)[C@H]1O")
1.01
>>> experimental_value("COc1ccc(C(=O)c2ccc(O)cc2)c(O)c1O")
0.984
>>> experimental_value("COc1ccc(C(=O)c2ccccc2)c(O)c1O")
0.971
>>> experimental_value("Cc1cc(C(C)(C)C)c(O)c(C)c1CC1=NCCN1")
1
>>> experimental_value("NC1C[C@H]1c1ccccc1 (stereo partly specified)")
0.984
>>> experimental_value("NCCCC(N)CC(=O)NCC1NC(=O)C(CO)NC(=O)C(N)CNC(=O)C(C2CCN=C(N)N2)NC(=O)/C(=C\\NC(N)=O)NC1=O (stereo not drawn) (H-[Dap]S[Dap](ξβ3hOrn)[ΔAla(E,3-NHCONH2)][X2]; lactam 1-C; configuration not given here)")
0.994
>>> experimental_value("COc1cnc(NS(=O)(=O)c2ccc(N)cc2)nc1")
1.01
>>> experimental_value("CCC1(CC)C(=O)C=CNC1=O")
0.994
